Tested on: LXRb:RXRa (NR concentration 270 nM, RXRa partner concentration 90 nM)
Test: PBM binding z-score (relative to random genomic background probes); higher = stronger binding; sequences stand for … in GC…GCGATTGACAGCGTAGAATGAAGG
Response field class: string, computed from recorded PBM binding z-score by ranges low: < 0.5; medium: ≥ 0.5 and < 2; high: ≥ 2

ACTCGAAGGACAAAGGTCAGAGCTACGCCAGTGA; high
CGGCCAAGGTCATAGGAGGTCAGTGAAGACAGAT; high
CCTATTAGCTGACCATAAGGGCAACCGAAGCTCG; low
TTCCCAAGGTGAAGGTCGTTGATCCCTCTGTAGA; medium

Exercise: Form: Item = TAATATAGGTAAACAGGTGAAAGTCCGTAAGTTA ; Class = ?
Key: medium

Exercise: read the entry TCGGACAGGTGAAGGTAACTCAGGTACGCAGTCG and state which class it falls under.
Key: medium

Exercise: In plain terms, what class is GTACCAAGGTGAATAGGTCGTTGAGGAGTAGGCG ?
Key: medium

Exercise: Assign a category based on measured PBM binding z-score for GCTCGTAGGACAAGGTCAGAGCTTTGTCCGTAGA and give only the class name.
Key: medium

Exercise: Please indicate the class for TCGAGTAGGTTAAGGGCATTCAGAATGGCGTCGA based on its PBM binding z-score.
Key: low

Exercise: Hi there! Could you help me figure out the category for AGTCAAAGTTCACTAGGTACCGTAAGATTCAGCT please?
Key: high

Exercise: GET /class?item= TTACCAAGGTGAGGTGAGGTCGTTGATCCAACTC
Key: medium

Exercise: Category of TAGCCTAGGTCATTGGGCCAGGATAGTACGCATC , please.
Key: medium

Exercise: Into which bin does this sequence go? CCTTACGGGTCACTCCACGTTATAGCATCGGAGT
Key: high

====

PBM binding z-score listing for selected sequences.
System: RARg:RXRa (NR concentration 270 nM, RXRa partner concentration 90 nM)
Assay: PBM binding z-score (relative to random genomic background probes); higher = stronger binding; sequences stand for … in GC…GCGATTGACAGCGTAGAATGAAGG
Lab note: write the figure by itself, no unit.

Please review the following examples before continuing.
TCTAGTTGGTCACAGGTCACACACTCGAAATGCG; 3.75
CCTCGGATGACAGAAGGTCAGAGCTGTCCGCTTT; 2.49
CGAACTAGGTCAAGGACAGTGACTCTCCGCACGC; 3.85
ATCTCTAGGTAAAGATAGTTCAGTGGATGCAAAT; 0.4
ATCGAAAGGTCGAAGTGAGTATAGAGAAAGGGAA; 3.79
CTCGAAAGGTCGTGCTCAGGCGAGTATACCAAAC; 4.35

The sequence identified as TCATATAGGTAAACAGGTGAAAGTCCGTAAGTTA registered its PBM binding z-score at 0.484

Lookup result for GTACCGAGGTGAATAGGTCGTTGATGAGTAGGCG ; measured PBM binding z-score: 2.95

# PBM binding z-score (sequence: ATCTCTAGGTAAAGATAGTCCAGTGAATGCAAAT ) is 0.22

Documented PBM binding z-score of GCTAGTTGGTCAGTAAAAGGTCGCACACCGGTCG : 2.68

Entry under test: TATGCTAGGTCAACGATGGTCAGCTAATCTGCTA . Its PBM binding z-score was 4.02

Record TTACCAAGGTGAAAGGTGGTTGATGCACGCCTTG . Reported PBM binding z-score: 0.898

====

System: FXR:RXRa (NR concentration 270 nM, RXRa partner concentration 90 nM)
Assay: PBM binding z-score (relative to random genomic background probes); higher = stronger binding; sequences stand for … in GC…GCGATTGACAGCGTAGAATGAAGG
I would appreciate it if you labelled entries Satisfied when PBM binding z-score is 0.4 or higher, otherwise Not satisfied.

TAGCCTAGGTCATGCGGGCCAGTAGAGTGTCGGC; Satisfied
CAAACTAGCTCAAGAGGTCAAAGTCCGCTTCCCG; Satisfied
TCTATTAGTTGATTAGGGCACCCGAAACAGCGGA; Satisfied
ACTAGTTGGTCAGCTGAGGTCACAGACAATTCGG; Satisfied
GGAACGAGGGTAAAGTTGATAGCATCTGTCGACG; Satisfied

Exercise: Is PBM binding z-score for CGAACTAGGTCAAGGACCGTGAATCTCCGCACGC at or above 0.4?
Key: Satisfied

Exercise: In plain terms: is recorded PBM binding z-score at least 0.4 for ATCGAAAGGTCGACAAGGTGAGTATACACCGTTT ?
Key: Satisfied

Exercise: PBM binding z-score >= 0.4 for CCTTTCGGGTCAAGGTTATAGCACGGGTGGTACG ?
Key: Satisfied

====

System: RARa homodimer (NR concentration 270 nM)
Assay: PBM binding z-score (relative to random genomic background probes); higher = stronger binding; sequences stand for … in GC…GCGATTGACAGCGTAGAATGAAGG
Classification field: enter yes (1) for PBM binding z-score values not below 0.6, no (0) for values below it.

Example cases with answers are listed next.
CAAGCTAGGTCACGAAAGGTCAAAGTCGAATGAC; yes (1)
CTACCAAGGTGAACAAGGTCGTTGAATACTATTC; no (0)
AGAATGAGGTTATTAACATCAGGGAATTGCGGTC; no (0)
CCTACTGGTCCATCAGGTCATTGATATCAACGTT; yes (1)
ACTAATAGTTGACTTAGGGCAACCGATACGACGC; no (0)
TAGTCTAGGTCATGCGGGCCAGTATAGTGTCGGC; no (0)

Exercise: Record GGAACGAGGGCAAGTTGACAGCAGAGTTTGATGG ; criterion: PBM binding z-score no lower than 0.6. Met?
Key: no (0)

Exercise: Can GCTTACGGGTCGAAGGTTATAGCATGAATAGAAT be said to have PBM binding z-score at or above 0.6?
Key: no (0)

Exercise: PBM binding z-score >= 0.6 for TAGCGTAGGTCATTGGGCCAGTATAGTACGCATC ?
Key: no (0)

Exercise: Is PBM binding z-score at least 0.6? Consider TGAAAGAGGTTAAAGATCAGGGAACGTGGCGTCG
Key: no (0)

Exercise: Tell me whether PBM binding z-score is at least 0.6 here: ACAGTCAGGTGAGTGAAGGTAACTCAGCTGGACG
Key: no (0)

====

Tested on: PPARg:RXRa (NR concentration 180 nM, RXRa partner concentration 90 nM)
Test: PBM binding z-score (relative to random genomic background probes); higher = stronger binding; sequences stand for … in GC…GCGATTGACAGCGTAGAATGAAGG
Give TRUE when the value for PBM binding z-score is at least 9. Give FALSE when it is less.

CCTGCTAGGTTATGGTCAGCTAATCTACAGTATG; FALSE
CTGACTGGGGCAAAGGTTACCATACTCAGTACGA; TRUE
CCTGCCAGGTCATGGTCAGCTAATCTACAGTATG; FALSE
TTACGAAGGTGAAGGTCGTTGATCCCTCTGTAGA; FALSE
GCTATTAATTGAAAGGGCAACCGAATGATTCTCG; FALSE

Exercise: Reported PBM binding z-score at or above 9? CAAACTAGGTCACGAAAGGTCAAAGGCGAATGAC
Key: TRUE

Exercise: Quick check, PBM binding z-score >= 9? TCTTGTAGATCAGCAGGTTAGGAAAGCTGGCCAA
Key: FALSE

====

Tested on: RXRa DBDmut IVT, anti-RXR (DBD mutation: RXRa K156A/R161A, NR concentration 90 nM)
Experiment: PBM binding z-score (relative to random genomic background probes); higher = stronger binding; sequences stand for … in GC…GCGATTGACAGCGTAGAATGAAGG
Hi, to clarify the labels: met covers PBM binding z-score from 0.5 upward, not met covers anything below 0.5.

As a guide, the following entries are already answered.
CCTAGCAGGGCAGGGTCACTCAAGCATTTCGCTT; not met
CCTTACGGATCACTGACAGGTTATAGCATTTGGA; met
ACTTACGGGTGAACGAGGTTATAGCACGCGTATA; not met
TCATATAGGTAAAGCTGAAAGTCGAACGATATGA; not met
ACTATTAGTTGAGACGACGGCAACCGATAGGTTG; not met

Exercise: Confirm if PBM binding z-score reported for the sequence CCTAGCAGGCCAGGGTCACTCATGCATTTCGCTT is 0.5 or above.
Key: met

Exercise: Given the entry TCACCAAGGTGAGCTGAGGTCGTTGATCCAACTC , answer whether its PBM binding z-score meets or surpasses 0.5.
Key: met

Exercise: Confirm if PBM binding z-score reported for the sequence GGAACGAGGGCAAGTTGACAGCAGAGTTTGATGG is 0.5 or above.
Key: met

Exercise: Given the entry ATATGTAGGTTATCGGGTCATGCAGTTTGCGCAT , answer whether its PBM binding z-score meets or surpasses 0.5.
Key: met

Exercise: Entry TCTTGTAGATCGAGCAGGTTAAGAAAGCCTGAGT : is its PBM binding z-score no less than 0.5?
Key: not met

Exercise: Is PBM binding z-score at least 0.5? Consider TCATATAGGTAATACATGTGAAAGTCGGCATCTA
Key: met

Exercise: Form field: PBM binding z-score at least 0.5? Entry: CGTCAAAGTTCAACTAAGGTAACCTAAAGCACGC
Key: met
